molecular target: HLA-A*02:11; assay: IEDB peptide-MHC binding, purified MHC/direct/fluorescence; filed as Kd, often an IC50 or EC50 that approximates it; bounds were set here for any values at or beyond the usual limits of such assays; conditions: source organism: Vibrio vulnificus YJ016
READOUT NAME: Kd

Enquiry: Entry MKYVWPPIM needs its Kd filled in; supply it.
Return: ≥ 20 µM

====

Listed here: items and their measured pKd.
target: HLA-B*57:01; assay: IEDB peptide-MHC binding, purified MHC/competitive/fluorescence; filed as Kd, often an IC50 or EC50 that approximates it; bounds were set here for any values at or beyond the usual limits of such assays; details: source organism: Homo sapiens
pKd: −log10 of the molar value.

SLFNWLWYE
≤ 4.70

// switching to the query sequence
Enquiry: Please tell me the measured pKd for YSDNEMLTH ; system: HLA-B*57:01.
Return: ≤ 4.70

====

target: HLA-B*57:01; experiment: IEDB peptide-MHC binding, purified MHC/direct/fluorescence; filed as Kd, often an IC50 or EC50 that approximates it; bounds were set here for any values at or beyond the usual limits of such assays; settings: source organism: Brucella abortus 2308
READOUT NAME: Kd

Enquiry: # return recorded Kd for input IEVKFHPIL
Return: ≥ 20 µM

====

target: HLA-A*01:01; experiment: IEDB peptide-MHC binding, purified MHC/direct/fluorescence; filed as Kd, often an IC50 or EC50 that approximates it; bounds were set here for any values at or beyond the usual limits of such assays; details: source organism: Amur virus
READOUT NAME: Kd (nM)
Give just the number in nM; leave the unit off.

Enquiry: # return recorded Kd for entry LTSSSKYTY
Return: 33

====

# reported pKd; entries follow
target: HLA-A*03:01; test: IEDB peptide-MHC binding, purified MHC/direct/fluorescence; filed as Kd, often an IC50 or EC50 that approximates it; bounds were set here for any values at or beyond the usual limits of such assays; conditions: source organism: Orthohantavirus andesense
pKd: −log10 of the molar value.

AVEDFLAFF
≤ 4.70

Please turn your attention to the following entry.
Enquiry: Determine its reported pKd: DAVEDFLAF
Return: ≤ 4.70

====

Entries annotated with measured Kd
target: HLA-B*54:01; experiment: IEDB peptide-MHC binding, purified MHC/competitive/radioactivity; filed as Kd, often an IC50 or EC50 that approximates it; bounds were set here for any values at or beyond the usual limits of such assays; details: source organism: Vaccinia virus WR
Respond with the bare value in nM.

Below, 8 sequences whose answers are already recorded.
TPNYMKLLVY
14600
IPYLRNYMVI
829
FPSTQRDYY
3940
ISIIVLFQR
7680
EPISILDRI
820
FPGLYGASI
18.4
YPTNDIPSLF
473
WPNNCGWKIY
1140

Attention now turns to another entry.
Enquiry: Look up and report measured Kd for this entry: KQYIVATLMK
Return: 13700

====

biological target: HLA-A*02:11; assay: IEDB peptide-MHC binding, purified MHC/direct/fluorescence; filed as Kd, often an IC50 or EC50 that approximates it; bounds were set here for any values at or beyond the usual limits of such assays; conditions: source organism: Reston ebolavirus
pKd: −log10 of the molar value.
READOUT NAME: pKd

Enquiry: Specify measured pKd for WFQRIPLQW .
Return: ≤ 4.70
